ED50 listing for selected compounds.
test system: Rattus norvegicus; test: Inhibition of carrageenan edema in normal rats was determined after peroral administration; assay type: functional; conditions: po
measured property: ED50 (mg/kg)

• COc1ccc2c(c1)c(CC(=O)O)c(C)n2C(=O)c1ccc(Cl)cc1 [INDOMETHACIN] = 5
• CC(C)n1c(=O)nc(-c2cccc(F)c2)c2cc3c(cc21)OCO3 = 9
• Cc1ccc2c(-c3ccccc3)nc(=O)n(C(C)C)c2c1 [PROQUAZONE] = 5
• CC(C)n1c(=S)nc(-c2ccccc2)c2cc3c(cc21)OCO3 = 7
• CC(C)n1c(=O)nc(-c2ccccc2)c2cc3c(cc21)OCO3 = 8
• CCCCC1C(=O)N(c2ccccc2)N(c2ccccc2)C1=O [PHENYLBUTAZONE] = 25
• CC(C)n1c(=O)nc(-c2ccc(F)cc2)c2cc3c(cc21)OCO3 = 8
